Tested on: isolated left atrium of male guineapigs
Assay: Antiarrhythmic action on the isolated guineapig atrium (drop in maximum rhythmicity)
Parameters: species or system guineapig (strain: Pirbright white)
Details: Cavia porcellus, Tyrode's solution pH 7.4, 32° C., read-out: Maximum rhythmicity (ED 50%): concentration which causes a 50% drop in the maximum rhythmicity
Structures can show the parent of a compound that is named as a salt.
Entries annotated with measured EC50
Field: numeric (µg/mL). Do not append units.

Worked set:
1. COc1ccc(CCN(C)CC(O)COc2ccccc2C(=O)CCc2ccccc2)cc1OC (stereo not shown) [Example 15, hydrochloride] = 0.728
2. O=C(CCc1ccccc1)c1ccccc1OCC(O)CN1CCC(O)(c2ccccc2)CC1 (stereo not shown) [Example 24, hydrochloride] = 2.65
3. O=C(CCc1ccccc1)c1ccccc1OCC(O)CNC1CC1 (stereo not shown) [Example 3, hydrochloride] = 1.51

Now examine the next entry.
## Task Would you kindly share the measured EC50 for CC(C)N(CC(O)COc1ccccc1C(=O)CCc1ccc(N(C)C)cc1)C(C)C (stereo not shown) [Example 64, hydrochloride] ?
## Result 1.36

###

Test system: isolated left atrium of male guineapigs
Test: Antiarrhythmic action on the isolated guineapig atrium (drop in maximum rhythmicity)
Parameters: species or system guineapig (strain: Pirbright white)
Conditions: Cavia porcellus, Tyrode's solution pH 7.4, 32° C., read-out: Maximum rhythmicity (ED 50%): concentration which causes a 50% drop in the maximum rhythmicity
Where a name gives a salt, the structure may show the parent alone.
Returns: string. Value is class 1 if measured EC50 is below 1 µg/mL, and class 0 if it is greater than or equal to it.

## Task State whether 1 µg/mL exceeds EC50 recorded for CN1CCN(CC(O)COc2ccccc2C(=O)CCc2ccc(N(C)C)cc2)CC1 (centres unmarked) [Example 67, hydrochloride] .
## Result class 1

## Task State whether 1 µg/mL exceeds EC50 recorded for CC(CCO)NCC(O)COc1ccccc1C(=O)CCc1ccccc1 (centres unmarked) [Example 1, hydrochloride] .
## Result class 0

## Task State whether 1 µg/mL exceeds EC50 recorded for CN(C)c1ccc(CCC(=O)c2ccccc2OCC(O)CN2CCCCC2)cc1 (centres unmarked) [Example 55] .
## Result class 1

## Task State whether 1 µg/mL exceeds EC50 recorded for COCC(C)NCC(O)COc1ccccc1C(=O)CCc1ccc(N(C)C)cc1 (centres unmarked) [Example 60, hydrochloride] .
## Result class 0

## Task State whether 1 µg/mL exceeds EC50 recorded for CC(CNCC(O)COc1ccccc1C(=O)CCc1ccccc1)c1ccccc1 (centres unmarked) [Example 12, hydrochloride] .
## Result class 0

## Task State whether 1 µg/mL exceeds EC50 recorded for CCCNCC(O)COc1ccccc1C(=O)CCc1cc(OC)c(OC)c(OC)c1 (centres unmarked) [Example 49] .
## Result class 0

## Task State whether 1 µg/mL exceeds EC50 recorded for CCCNCC(O)COc1ccccc1C(=O)CCc1ccc(N(C)C)cc1 (centres unmarked) [Example 35, hydrochloride] .
## Result class 0

## Task State whether 1 µg/mL exceeds EC50 recorded for C#CC(C)(C)NCC(O)COc1ccccc1C(=O)CCc1ccccc1 (centres unmarked) [Example 7, hydrochloride] .
## Result class 0

## Task State whether 1 µg/mL exceeds EC50 recorded for CCCCNCC(O)COc1ccccc1C(=O)CCc1ccc(N(C)C)cc1 (centres unmarked) [Example 58, hydrochloride] .
## Result class 0

## Task State whether 1 µg/mL exceeds EC50 recorded for CN(C)c1ccc(CCC(=O)c2ccccc2OCC(O)CNC2CC2)cc1 (centres unmarked) [Example 57, hydrochloride] .
## Result class 0
